These data points were gathered from ChEMBL document CHEMBL1132774.

Measurement target: Beta-1 adrenergic receptor (Homo sapiens, UniProt P08588)
Sequence (P08588 whole entry): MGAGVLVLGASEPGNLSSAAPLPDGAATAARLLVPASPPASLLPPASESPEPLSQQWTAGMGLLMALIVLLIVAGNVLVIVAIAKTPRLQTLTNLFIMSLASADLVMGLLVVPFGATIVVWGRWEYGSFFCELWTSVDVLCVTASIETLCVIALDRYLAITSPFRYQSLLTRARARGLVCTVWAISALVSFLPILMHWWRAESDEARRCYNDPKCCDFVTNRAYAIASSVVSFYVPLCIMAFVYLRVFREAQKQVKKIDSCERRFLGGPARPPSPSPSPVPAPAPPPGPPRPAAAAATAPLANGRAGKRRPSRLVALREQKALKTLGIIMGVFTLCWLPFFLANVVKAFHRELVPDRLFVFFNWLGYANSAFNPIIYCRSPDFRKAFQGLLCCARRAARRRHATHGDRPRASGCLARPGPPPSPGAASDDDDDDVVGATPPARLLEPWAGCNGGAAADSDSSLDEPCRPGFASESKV
Protocol summary: Compound was evaluated for its inhibitory activity against CHO cells expressing the cloned human beta-1 adrenergic receptor (AR) in the presence of [125I]iodocyanopindolol
Assay type: functional, cell-based
Value type: IC50 (µM)

(a) CCCCCCNC(=O)Nc1ccc(S(=O)(=O)Nc2ccc(-c3cccc(CC4NCCc5cc(O)c(O)cc54)c3)cc2)cc1 (centres undefined)
(b) CCCCCCNC(=O)Nc1ccc(S(=O)(=O)Nc2ccc(-c3ccc(CC4NCCc5cc(O)c(O)cc54)cc3)cc2)cc1 (centres undefined)
Response body: label of entry with the larger IC50; valid values a , b . Indicate which entry you chose by stating its label. a

(a) CCCCCCNC(=O)Nc1ccc(S(=O)(=O)Nc2cccc(-c3cccc(CC4NCCc5cc(O)c(O)cc54)c3)c2)cc1 (centres undefined)
(b) CCCCCCNC(=O)Nc1ccc(S(=O)(=O)Nc2cccc(-c3ccc(CC4NCCc5cc(O)c(O)cc54)cc3)c2)cc1 (centres undefined)
Response body: label of entry with the larger IC50; valid values a , b . Indicate which entry you chose by stating its label. b
